So I've got a bunch of molecules here, and I need their v IL-8 inhibition (%) values.
system: IL-8; experiment: In vitro chemotaxis, inhibition v IL-8; format: cell-based, human; parameters: concentration or dose not given beside the values
Bridge positions count the residues as written; N and C are the ends. Square brackets hold non-standard residues; d marks the D form. Peptide text beside a SMILES is read from it. * marks the point of attachment. Lauroyl = CCCCCCCCCCCC(=O)*; Octanoyl = CCCCCCCC(=O)*; Aoc = NCCCCCCCC(=O)O
Unit % implied. Number only.

Please state recorded v IL-8 inhibition (%) (tested on IL-8) of CC[C@@H](C)[C@H]1NC(=O)[C@@H](CCC(N)=O)NC(=O)[C@H](N)CSSC[C@H](C(=O)N[C@@H](CCC(=O)O)C(=O)NCCCCCCCC(=O)O)NC(=O)[C@@H](CC(C)C)NC(=O)[C@@H](CC(=O)O)NC(=O)[C@H]2CCCN2C(=O)[C@@H](CCCCN)NC(=O)[C@@H](CCC(N)=O)NC(=O)[C@@H](CCCCN)NC(=O)[C@@H](Cc2c[nH]c3ccccc23)NC1=O [Example 145] (H-[dC][dQ][dI][dW][dK][dQ][dK][dP][dD][dL][dC]E[Aoc]-OH; disulfide 1-11)
23.8

Please state recorded v IL-8 inhibition (%) (tested on IL-8) of CC[C@H](C)[C@@H]1NC(=O)[C@H](Cc2c[nH]c3ccccc23)NC(=O)[C@H](CCCCN)NC(=O)[C@H](CCC(N)=O)NC(=O)[C@H](CCCCN)NC(=O)[C@@H]2CCCN2C(=O)[C@H](CC(=O)O)NC(=O)[C@@H](N)CSSC[C@@H](C(N)=O)NC(=O)[C@H](CCC(N)=O)NC1=O [Example 42] (H-CDPKQKWIQC-NH2; disulfide 1-10)
94.4

Please state recorded v IL-8 inhibition (%) (tested on IL-8) of CCCCCCCCCCCC(=O)NCCCC[C@H](N)C(=O)N[C@@H](CC(=O)O)C(=O)N[C@H]1CSSC[C@@H](C(N)=O)NC(=O)[C@H](CCC(N)=O)NC(=O)[C@H]([C@@H](C)CC)NC(=O)[C@H](Cc2c[nH]c3ccccc23)NC(=O)[C@H](CCCCN)NC(=O)[C@H](CCC(N)=O)NC(=O)[C@H](CCCCN)NC(=O)[C@@H]2CCCN2C(=O)[C@H](CC(=O)O)NC(=O)[C@H](CC(C)C)NC1=O [Example 170] (H-K(Lauroyl)DCLDPKQKWIQC-NH2; disulfide 3-13)
−5.1

Please state recorded v IL-8 inhibition (%) (tested on IL-8) of CC[C@H](C)[C@@H]1NC(=O)[C@H](Cc2c[nH]c3ccccc23)NC(=O)[C@H](CCCCN)NC(=O)[C@H](CCC(N)=O)NC(=O)[C@H](CCCCN)NC(=O)[C@@H]2CCCN2C(=O)[C@@H](N)CSSC[C@@H](C(N)=O)NC(=O)[C@H](CCC(N)=O)NC1=O [Example 46] (H-CPKQKWIQC-NH2; disulfide 1-9)
52.4

Please state recorded v IL-8 inhibition (%) (tested on IL-8) of CCCCCCCC(=O)NCCCC[C@H](NC(=O)[C@@H](CCC(=O)O)NC(=O)[C@H](NC(=O)[C@H]1CSSC[C@@H](N)C(=O)N[C@H](CCC(N)=O)C(=O)N[C@H]([C@H](C)CC)C(=O)N[C@H](Cc2c[nH]c3ccccc23)C(=O)N[C@H](CCCCN)C(=O)N[C@H](CCC(N)=O)C(=O)N[C@H](CCCCN)C(=O)N2CCC[C@@H]2C(=O)N[C@H](CC(=O)O)C(=O)N[C@H](CC(C)C)C(=O)N1)C(C)C)C(=O)O [Example 150] (H-[dC][dQ][dI][dW][dK][dQ][dK][dP][dD][dL][dC][dV][dE]K(Octanoyl)-OH; disulfide 1-11)
100.5
